Where these numbers come from: PubChem BioAssay (NCI)

tested on: SF-268 CNS; experiment: NCI-60 one-dose screen, 48 h (100 = growth as untreated, 0 = no growth, -100 = all killed); settings: 10 µM unless noted
Compounds without any hit were thinned out: in the full panel of roughly 83,000, 20% have a hit. Active and inactive are the calls of the source. How the source made its calls: active means growth percent below 10; inactive means the rest.
Below: a set of entries, each annotated with reported growth.

Guide cases for growth, answers given:
[
  {
    "SMILES_REPRESENTATION": "O=C(O)CCC/C=C\\C[C@H]1C=CC(=O)/C1=C/C[C@@H](O)CCc1cccc(C(F)(F)F)c1",
    "growth": "3.06% (active)"
  },
  {
    "SMILES_REPRESENTATION": "O=c1c2cc(F)ccc2sc2c(N3CCCCC3)nc3ccccc3c12",
    "growth": "102% (inactive)"
  }
]

Continue with the molecule presented below.
Ask | Quick check: growth on SF-268 CNS, item Cc1cccc(NC2=C(Cl)C(=O)c3nc(C)ccc3C2=O)c1 ?
Reply | 58.2% (inactive)

----------
Reported growth values are given for each entry in this list.
test system: A498 renal; assay: NCI-60 one-dose screen, 48 h (100 = growth as untreated, 0 = no growth, -100 = all killed); settings: 10 µM unless noted
The panel holds about 83,000 compounds, 20% with a hit somewhere; the sample as a whole holds those more often.
// note: answer is a bare numeric in %

[
  {
    "COMPOUND": "CCc1ccccc1-n1c(N)c(C#N)c(-c2ccc(Cl)cc2)c(C#N)c1=O",
    "ASSAY_TARGET": "A498 renal",
    "growth, %": 127
  },
  {
    "COMPOUND": "NCCCNc1nc2ccccc2c2c(=O)c3cccc(F)c3sc12",
    "ASSAY_TARGET": "A498 renal",
    "growth, %": 29.4
  },
  {
    "COMPOUND": "NCCCNc1nc2ccccc2c2c(=O)c3cc(F)cc(Cl)c3sc12",
    "ASSAY_TARGET": "A498 renal",
    "growth, %": 66.3
  },
  {
    "COMPOUND": "COc1ccc(/C=N/Nc2cc(=O)[nH]c3ccc(Cl)cc23)cc1",
    "ASSAY_TARGET": "A498 renal",
    "growth, %": 80.7
  },
  {
    "COMPOUND": "CC(C)n1cnc2c(Nc3cccc(Cl)c3)nc(N[C@H]3CCCC[C@@H]3N)nc21",
    "ASSAY_TARGET": "A498 renal",
    "growth, %": 94.9
  },
  {
    "COMPOUND": "c1ccc2c(-c3nc(-c4c[nH]c5ccncc45)cs3)c[nH]c2c1",
    "ASSAY_TARGET": "A498 renal",
    "growth, %": 85.5
  }
]

Ask | Lab note: need growth with A498 renal for entry O=C1c2cccc3cccc(c23)C(=O)N1Nc1nc(NC2CCCCC2)nc(N2CCOCC2)n1 , please look it up.
Reply | 127

----------
growth: recorded values
System: K-562 leukemia
Experiment: NCI-60 one-dose screen, 48 h (100 = growth as untreated, 0 = no growth, -100 = all killed)
Conditions: 10 µM unless noted
Description: Cells are grown in 96 well plates and exposed to the test compound for 48 hours. Compounds are tested at a single concentration, which is 10^-5 M for most compounds. The reported endpoint is percent growth (GI% or GIPRCNT), where numbers from 0 - 100% represent growth inhibition, and numbers from -100% - 0 represent cell death. For example, a value of 40 represents 60% growth inhibition. A value of 0 means no net growth occurred over the course of the experiment. […]
This is part of a sample that, as a whole, favours compounds with a hit. Of some 83,000 tested, about 20% had one in any assay.
Please state the figure in %; there is no need to write the unit.

Example entries begin here.
[
  {
    "COMPOUND": "CCOC(=O)C1=C(N)Oc2c(sc3c(CC)cccc23)C1c1ccc(F)cc1 (stereo not drawn)",
    "growth [%]": 10.7
  },
  {
    "COMPOUND": "O=S(=O)(Nc1ccc(-c2nc(-c3cccc(OCCN4CCOCC4)c3)c(-c3ccnc(Br)c3)[nH]2)cc1)c1ccccc1",
    "growth [%]": 3.42
  },
  {
    "COMPOUND": "COc1ccccc1/C=C1\\Oc2cc(OCCN3CCC(Cc4ccccc4)CC3)ccc2C1=O",
    "growth [%]": 27.6
  },
  {
    "COMPOUND": "O=CN1N=C(c2ccc(Nc3ccnc4cc(Cl)ccc34)cc2)CC1c1ccccc1 (stereo not drawn)",
    "growth [%]": 11.8
  },
  {
    "COMPOUND": "CCOC(=O)C1=C(N)Oc2c(sc3c(C)cccc23)C1c1ccc(Cl)cc1 (stereo not drawn)",
    "growth [%]": 9.65
  }
]

Ask | Could you share which growth value was measured for NCCNc1nc2ccccc2c2c(=O)c3cc(F)ccc3sc12 ?
Reply | 1.61

Ask | Report growth for Cc1nc(NC(=O)COc2ccc(/C=C3\Cc4ccc(Cl)cc4C3=O)cc2)sc1C please.
Reply | 106

Ask | What value of measured growth is listed for COc1cc(C2CC(c3ccc(N(C)C)cc3)=NN2C(C)=O)cc(OC)c1OC (stereo not drawn) ?
Reply | 17.6

Ask | Requested read-out: growth. Entry: COc1ccc(OC)c(/C=C2\Oc3cc(OCCN4CCC(Cc5ccccc5)CC4)ccc3C2=O)c1
Reply | 20.7

Ask | Please report the recorded growth for Cc1onc2c(-c3ccccc3)n[nH]c(=O)c12 .
Reply | 69.8

Ask | Report growth for COc1cc(CCCO)c(OC)c(OC)c1OC please.
Reply | 104

Ask | Which growth value is on record for COc1c(B(O)O)cc(C)cc1-c1nc2ccc3[nH]ncc3c2c2c1CCCC2 ?
Reply | 24.1

Ask | Name the recorded growth for Cc1cc(N2CCCC2)nc(N(CCCNc2ccnc3cc(Cl)ccc23)Cc2ccccn2)n1 .
Reply | 11.3

----------
system: NCI-H522 lung; test: NCI-60 one-dose screen, 48 h (100 = growth as untreated, 0 = no growth, -100 = all killed); conditions: 10 µM unless noted
About 83,000 compounds went through this panel and 20% of them were active in at least one assay; those are over-represented in the sample as a whole.
READOUT: growth (%)
Answer in %, number only, no unit symbol.

Sample records with growth:
[
  {
    "COMPOUND": "COc1ccc(OC)c(/C=C/C(=O)N/N=C/c2ccccc2)c1",
    "growth (%)": -15.3
  },
  {
    "COMPOUND": "CCCCOc1nc2c(C)cccc2cc1-c1cc(-c2ccc(Cl)cc2)nc(-c2ccc(Cl)cc2)c1",
    "growth (%)": 97.4
  }
]

Ask | Form: Entry = CN1CCN(c2ccc(-c3cc4c(Nc5ccc(F)c(Cl)c5)ncnn4c3)cc2)CC1 | System = NCI-H522 lung | growth = ____
Reply | 72.5

Ask | API: value(readout=growth, system=NCI-H522 lung) for record c1ccc(Nc2cc(-c3cccnc3)[nH]n2)cc1
Reply | 89.5

Ask | Hello, I am looking for reported growth with NCI-H522 lung for CN(C)CCNc1nc2ccccc2c2c(=O)c3cc(F)ccc3sc12 . Could you help?
Reply | 37.8

Ask | Test system NCI-H522 lung; read-out growth; what value for CCCCC[C@H](O)C/C=C1/C(=O)C=C[C@@H]1C/C=C\CCCC(=O)O ?
Reply | 46.3

----------
system: LOX IMVI melanoma; assay: NCI-60 one-dose screen, 48 h (100 = growth as untreated, 0 = no growth, -100 = all killed); settings: 10 µM unless noted
This is part of a sample that, as a whole, favours compounds with a hit. Of some 83,000 tested, about 20% had one in any assay.
READOUT: growth (%)
Only the number, expressed in %, is required.

Below are worked cases with known answers.
[
  {
    "COMPOUND": "Cc1cc(-c2cc(C)c(N)cc2C)c(C)cc1N",
    "OBSERVED_RESULT": 75.6
  },
  {
    "COMPOUND": "CNC(=O)c1[nH]cc(-c2ccccc2)c1-c1cc(OC)c2c(c1OC)OCO2",
    "OBSERVED_RESULT": 98.5
  }
]

Ask | # growth lookup, item COc1ccc(CNC(=O)C(=O)[C@H](Cc2ccccc2)NC(=O)c2[nH]c3ccccc3c(=O)c2C)cc1
Reply | 102

Ask | Quick one: growth for C=C(C)[C@@H]1CC[C@]2(N=C=O)CC[C@]3(C)[C@H](CC[C@@H]4[C@@]5(C)Cc6c([nH]c7ccccc67)C(C)(C)[C@@H]5CC[C@]43C)[C@@H]12 ?
Reply | 87.7

Ask | Report growth for COc1cc(OCc2cccc(-c3ccc(C(O)c4nccs4)cc3)c2C)cc(OC)c1CNCCNC(C)=O (stereo unspecified) please.
Reply | 94.8

Ask | Look up growth for this compound: Cc1cc(O)c(C2=NN(c3ccc(S(N)(=O)=O)cc3)C(/C=C/c3ccccc3)C2)cc1Cl (stereo unspecified)
Reply | 18.5
